Where do these numbers come from? They come from the Human Domainome abundance scans (Beltran et al. 2025).

B1: 3'-5' exoribonuclease 1, residues 65 to 114; numbered along this chain, Q8IV48 (parent)
chain: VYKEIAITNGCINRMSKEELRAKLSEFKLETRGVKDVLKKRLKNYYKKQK

Variants of: B1
Assay name: abundance fitness (aPCA) (normalised: wild type 0, dead -1); higher = more abundant; growth selection in yeast, the domain comes from the species named
Condition description: Homo sapiens
Answer 0 if abundance fitness is under -0.2, and 1 if it is -0.2 or more.

Inquiry: Could you please find out whether R32G has abundance fitness that meets -0.2 or exceeds it?
Reply text: 0

Inquiry: Could you please find out whether K23P has abundance fitness that meets -0.2 or exceeds it?
Reply text: 0

Inquiry: Could you please find out whether S16T has abundance fitness that meets -0.2 or exceeds it?
Reply text: 1

Inquiry: Could you please find out whether R41N has abundance fitness that meets -0.2 or exceeds it?
Reply text: 0

Inquiry: Could you please find out whether K39F has abundance fitness that meets -0.2 or exceeds it?
Reply text: 0

Inquiry: Could you please find out whether D36I has abundance fitness that meets -0.2 or exceeds it?
Reply text: 0

Inquiry: Could you please find out whether N13W has abundance fitness that meets -0.2 or exceeds it?
Reply text: 0

Inquiry: Could you please find out whether A22N has abundance fitness that meets -0.2 or exceeds it?
Reply text: 1

Inquiry: Could you please find out whether I7K has abundance fitness that meets -0.2 or exceeds it?
Reply text: 1

Inquiry: Could you please find out whether A6G has abundance fitness that meets -0.2 or exceeds it?
Reply text: 1

Inquiry: Could you please find out whether I12F has abundance fitness that meets -0.2 or exceeds it?
Reply text: 0

Inquiry: Could you please find out whether C11I has abundance fitness that meets -0.2 or exceeds it?
Reply text: 1

Inquiry: Could you please find out whether D36T has abundance fitness that meets -0.2 or exceeds it?
Reply text: 1

Inquiry: Could you please find out whether K23C has abundance fitness that meets -0.2 or exceeds it?
Reply text: 1

Inquiry: Could you please find out whether G33K has abundance fitness that meets -0.2 or exceeds it?
Reply text: 0

Inquiry: Could you please find out whether A22K has abundance fitness that meets -0.2 or exceeds it?
Reply text: 1

Inquiry: Could you please find out whether K28S has abundance fitness that meets -0.2 or exceeds it?
Reply text: 1
